Tested on: Plasmodium berghei
Test protocol: Luciferase/luciferin-expressing antifolate-resistant parasites were used to infect a culture of HepG2 cells that were pre-incubated with compounds. Infected hepatocytes emit light due to the luciferase reaction. Assay results are presented as the percent inhibition of light emission compared to control. […]
Assay type: functional
Condition description: sporozoite, read-out: LUCIFERASE INFECTION ASSAY - IC90
Consider the cut-off 3 µM. If the recorded IC90 is strictly smaller, the label is TRUE; if not, the label is FALSE.

# Molecule, Classification
rows = [
    ("Cc1cc(C(=O)Nc2ccc(Cl)cc2)c(C)n1-c1ccccc1", "TRUE"),
    ("c1ccc(C(Nc2ncnc3sccc23)c2cccs2)cc1 (stereo not given)", "FALSE"),
    ("Cc1ccc(C(NCC(=O)Nc2cc(S(C)(=O)=O)ccc2Cl)c2ccccc2)cc1C (stereo not given)", "FALSE"),
    ("CCN1C(=O)N(CCCc2cccnc2)C(=O)C12CCN(Cc1ccc(-c3ccccc3C)cc1)CC2", "TRUE"),
    ("O=C(c1cc(-c2cccc3ccccc23)nc2ccccc12)N1CCN(c2ncccn2)CC1", "FALSE"),
]

Query: Please indicate whether the reported IC90 of "Cc1sc2ncnc(Sc3nnnn3-c3ccc(Cl)cc3)c2c1C" is strictly below 3 µM.
Response: FALSE

Query: Try "COc1ccc(-c2cc(-c3nnc4n3CCCCC4)c3c(C)nn(-c4ccccc4)c3n2)cc1" next.
Response: FALSE

Query: Repeat for the following molecule: O=C1CC(c2ccc(Cl)cc2)Cc2c1cnn2-c1ccc(Cl)cc1 (stereo not given)
Response: FALSE

Query: Next up: "COC(=O)c1ccccc1N1C(=O)C=CC1=O"
Response: FALSE

Query: Query "O=C(Nc1ccc(Oc2cc(C(F)(F)F)cc(C(F)(F)F)c2)cc1)Nc1ccc(OC(F)(F)F)cc1" next
Response: TRUE

----------
Tested on: Plasmodium berghei
Test protocol: Luciferase/luciferin-expressing antifolate-resistant parasites were used to infect a culture of HepG2 cells that were pre-incubated with compounds. Infected hepatocytes emit light due to the luciferase reaction. Assay results are presented as the percent inhibition of light emission compared to control. […]
Assay type: functional
Condition description: sporozoite, PBLUC_HILL_SLOPE 10, PBLUC_R_SQUARED 0.604, read-out: LUCIFERASE INFECTION ASSAY - IC50
Measurement label: pIC50
One number for each entry, as −log10 of the molar value.

Query: Look at this compound and give its reported pIC50. "Cc1[nH]c2ccc(F)cc2c(=O)c1I"
Response: 5.97

----------
Tested on: Plasmodium berghei
Test protocol: Luciferase/luciferin-expressing antifolate-resistant parasites were used to infect a culture of HepG2 cells that were pre-incubated with compounds. Infected hepatocytes emit light due to the luciferase reaction. Assay results are presented as the percent inhibition of light emission compared to control. […]
Assay type: functional
Condition description: sporozoite, HEPG2TOX_HILL_SLOPE 3.18, HEPG2TOX_R_SQUARED 0.875, PBLUC_HILL_SLOPE 8.44, PBLUC_R_SQUARED 0.581, read-out: LUCIFERASE INFECTION ASSAY - IC50
Measurement label: pIC50
Give bare numbers, as −log10 of the molar value.

Query: Please state recorded pIC50 (tested on Plasmodium berghei) of "c1ccc(-c2ccc3ncc(-c4cccnc4)n3n2)cc1"
Response: 5.55
